system: human lung cancer strain NCI-H441; type: cell-based
pIC50: −log10 of the molar value.
measure: pIC50

| chemical_smiles | measure | reported_result |
| --- | --- | --- |
| CC[C@H](C)[C@@H]1NC(=O)[C@H](CC(C)C)N(C)C(=O)C[C@@H](C(=O)N2CCOCC2)N(C)C(=O)[C@H](C2CCCC2)N(C)C(=O)C2(COC2)NC(=O)[C@@H]2CCCN2C(=O)[C@H](CCc2cc(F)c(C(F)(F)F)c(F)c2)NC(=O)CN(C)C(=O)[C@H](Cc2ccc(C(F)(F)F)cc2)N2CCCC[C@@H](C2=O)N(C)C(=O)CN(C)C1=O | pIC50 | 7.54 |
| CCO[C@@H]1C[C@H]2C(=O)NC3(CC(C)(C)C3)C(=O)N(C)[C@@H](C3CCCC3)C(=O)N(C)[C@H](C(=O)N(C)CC)CC(=O)N(C)[C@@H](COC)C(=O)N[C@@H]([C@@H](C)CC)C(=O)N(C)CC(=O)N(C)[C@H]3C/C=C\CCN(C3=O)[C@@H](Cc3ccc(C(F)(F)F)cc3)C(=O)N(C)CC(=O)N[C@@H](CCc3ccc(Cl)c(Cl)c3)C(=O)N2C1 | pIC50 | 7.89 |
| CCC[C@H]1C(=O)N[C@@H]([C@@H](C)CC)C(=O)N(C)CC(=O)N(C)[C@H]2C/C=C\CCN(C2=O)[C@@H](Cc2ccc(C)cc2)C(=O)N(C)CC(=O)N[C@@H](CCc2ccc(CC)c(Cl)c2)C(=O)N2C[C@H](OCC)C[C@H]2C(=O)NC2(CC(C)(C)C2)C(=O)N(C)[C@@H](C2CCCC2)C(=O)N(C)[C@H](C(=O)N(C)C)CC(=O)N1C | pIC50 | 7.65 |
| CCC[C@H]1C(=O)N[C@@H]([C@@H](C)CC)C(=O)N(C)CC(=O)N(C)[C@H]2C/C=C\CCN(C2=O)[C@@H](Cc2ccc(C)cc2)C(=O)N(C)CC(=O)N[C@@H](CCc2ccc(C(F)(F)F)c(OC)c2)C(=O)N2C[C@H](OCC)C[C@H]2C(=O)NC2(CC(C)(C)C2)C(=O)N(C)[C@@H](CC(C)C)C(=O)N(C)[C@H](C(=O)N(C)C)CC(=O)N1C | pIC50 | 7.80 |
| CCOC[C@H]1C(=O)N[C@@H]([C@@H](C)CC)C(=O)N(C)CC(=O)N(C)[C@H]2C/C=C\CCN(C2=O)[C@@H](Cc2ccc(C(F)(F)F)cc2)C(=O)N(C)CC(=O)N[C@@H](CCc2ccc(C(F)(F)F)c(OC)c2)C(=O)N2C[C@@H](C)C[C@H]2C(=O)NC2(CC(C)(C)C2)C(=O)N(C)[C@@H](C2CCCC2)C(=O)N(C)[C@H](C(=O)N(C)CC)CC(=O)N1C | pIC50 | 7.88 |
| CCO[C@@H]1C[C@H]2C(=O)NC3(CCC3)C(=O)N(C)[C@@H](C(CC)CC)C(=O)N(C)[C@H](C(=O)N(C)C)CC(=O)N(C)[C@@H](CC3CCCC3)C(=O)N[C@@H]([C@@H](C)CC)C(=O)N(C)CC(=O)N(C)[C@H]3C/C=C\CCN(C3=O)[C@@H](Cc3ccc(F)cc3)C(=O)N(C)CC(=O)N[C@@H](CCc3cc(F)c(C(F)(F)F)c(F)c3)C(=O)N2C1 | pIC50 | 7.47 |
